Answer each item with its documented IC50.
Target: Protein farnesyltransferase (Homo sapiens, UniProt P49354+P49356)
Test: In vitro inhibitory activity to reduce the human farnesyltransferase catalyzed incorporation of [3H]FPP into recombinant Ras-CVIM
Give bare numbers, in nM.

Check out these entries, answers already filled in.
| structure.smiles | tested.on | IC50, nM |
| --- | --- | --- |
| N#Cc1ccc2cc1Oc1ccc3cccc(c3c1)NC(=O)CN(Cc1ccccc1)Cc1cncn1C2 | Protein farnesyltransferase (Homo sapiens, UniProt P49354+P49356) | 2.6 |
| N#Cc1ccc2cc1Oc1ccc3cccc(c3c1)C(=O)NCCNCc1cncn1C2 | Protein farnesyltransferase (Homo sapiens, UniProt P49354+P49356) | 4.5 |
| C[C@H]1NCc2cncn2Cc2ccc(C#N)c(c2)Oc2ccc3cccc(c3c2)NC1=O | Protein farnesyltransferase (Homo sapiens, UniProt P49354+P49356) | 1.3 |
| N#Cc1ccc2cc1Oc1ccc3cccc(c3c1)NC(=O)CNC(=O)Cc1cncn1C2 | Protein farnesyltransferase (Homo sapiens, UniProt P49354+P49356) | 3.8 |
| C[C@H]1NC(=O)Cc2cncn2Cc2ccc(C#N)c(c2)Oc2ccc3cccc(c3c2)NC1=O | Protein farnesyltransferase (Homo sapiens, UniProt P49354+P49356) | 3.3 |

For every record below, what is its IC50?
1. N#Cc1ccc2cc1Oc1ccc3cccc(c3c1)C(=O)NCCNC(=O)Cc1cncn1C2
2. C[C@@H]1C(=O)Nc2cccc3ccc(cc23)Oc2cc(ccc2C#N)Cn2cncc2CN1C

Solution:
[2.5, 7]

For every record below, what is its IC50?
1. C[C@@H]1NCc2cncn2Cc2ccc(C#N)c(c2)Oc2ccc3cccc(c3c2)NC1=O
2. N#Cc1ccc2cc1Oc1ccc3cccc(c3c1)NC(=O)[C@@H](Cc1cccnc1)NCc1cncn1C2

Solution:
11
1.8

====

Answer each item with its documented IC50.
Target: Protein farnesyltransferase (Homo sapiens, UniProt P49354+P49356)
Test: In vitro inhibitory activity to reduce the human farnesyltransferase catalyzed incorporation of [3H]FPP into recombinant Ras-CVIM
Give bare numbers, in nM.

| structure.smiles | units | IC50 |
| --- | --- | --- |
| N#Cc1ccc2cc1Oc1ccc3cccc(c3c1)NC(=O)[C@@H](Cc1ccccc1)NCc1cncn1C2 | nM | 0.47 |
| CN1C(=O)CNCc2cncn2Cc2ccc(C#N)c(c2)Oc2ccc3cccc1c3c2 | nM | 15 |
| CN1Cc2cncn2Cc2ccc(C#N)c(c2)Oc2ccc3cccc(c3c2)NC(=O)[C@H]1Cc1ccccc1 | nM | 2.7 |
| N#Cc1ccc2cc1Oc1ccc3cccc(c3c1)NC(=O)[C@@H](Cc1ccccc1)NC(=O)Cc1cncn1C2 | nM | 3.5 |
| C[C@@H]1C(=O)Nc2cccc3ccc(cc23)Oc2cc(ccc2C#N)Cn2cncc2CN1Cc1ccccc1 | nM | 18 |

For every record below, what is its IC50?
1. N#Cc1ccc2cc1Oc1ccc3cccc(c3c1)NC(=O)CNCc1cncn1C2
2. CC[C@H]1NCc2cncn2Cc2ccc(C#N)c(c2)Oc2ccc3cccc(c3c2)NC1=O
3. N#Cc1ccc2cc1Oc1ccc3cccc(c3c1)NC(=O)[C@@H](Cc1ccccc1)N(Cc1ccccc1)Cc1cncn1C2

Solution:
1: 4.3; 2: 1.2; 3: 50

IC50 in this record for N#Cc1ccc2cc1Oc1ccc3cccc(c3c1)NC(=O)[C@@H](Cc1cccs1)NCc1cncn1C2 : 2.1
